These data points were gathered from ChEMBL document CHEMBL3988442.

- Test system: Trypanosoma cruzi
- Protocol text: Trypanosoma cruzi phosphomannomutase and mannose-1-phosphate guanylyltransferase assay
- Type: functional
- Design: scale not given: direction of the effect not stated beside the values
- Study conditions: 10 µM
Readout name: Percent Effect (%)
Use % as the unit, but write only the number.

>>> print(df.to_string())
                                   compound    readout_name  value_unit  observed
0    CNc1cc(CNC(=O)c2ccccn2)nc(-c2ccncc2)n1  Percent Effect           %      2.37
1  Cc1cnn(CC2CN(Cc3nc4ccccc4nc3C)CCO2)c1 (stereo unspecified)  Percent Effect           %      6.56
2  Cc1ccc(C)c(NC(=O)c2n[nH]c(-n3cnnc3)n2)c1  Percent Effect           %      2.75

Quick check: Percent Effect of CS(=O)(=O)N[C@@H]1CCO[C@]2(CCN(C(=O)C3=CCCC3)C2)C1 ?
-2.25

Quick check: Percent Effect of COCc1nn(C(C)C)c2c1CCN(Cc1ccc(C)s1)C2 ?
0.198

Quick check: Percent Effect of CNC(=O)C(NC(=O)c1nccn2ccnc12)c1ccc(F)c(F)c1 (stereo unspecified) ?
5.27

Quick check: Percent Effect of CCc1nnsc1C(=O)NC1CCN(c2ccccn2)CC1 ?
5.38

Quick check: Percent Effect of CC(C)OCCOCc1cccc(NC(=O)NCc2ccncc2)c1 ?
-0.295

Quick check: Percent Effect of O=C(CN1CCC(c2cccc(F)c2)C1)NCc1ccco1 (stereo unspecified) ?
6.01

Quick check: Percent Effect of COc1cc(C2CC(=O)Oc3cc(C)[nH]c(=O)c32)ccc1OC(F)F (stereo unspecified) ?
-5.3

Quick check: Percent Effect of CN1CC(=O)N(c2ccccc2)CC12CCN(Cc1nccs1)C2 (stereo unspecified) ?
-6.95

###

- Target or test system: Tyrosyl-tRNA synthetase, putative (Trypanosoma cruzi (strain CL Brener))
- Protocol text: Trypanosoma cruzi tyrosyl tRNA synthetase (TcYRS) SOP
- Assay type: functional
- Set-up: scale not given: direction of the effect not stated beside the values
- Study conditions: 30 µM
Entries annotated with measured Percent Effect
Use % as the unit, but write only the number.

In [3]: df
Out[3]:
                                   molecule  value_unit  observed
0  CS(=O)(=O)NCC(=O)NC1CCc2nccn2C1 (configuration not stated)           %      8.64
1  CC(C)n1cnc2c1C(C(=O)NCCC#N)N(Cc1ccccc1)CC2 (configuration not stated)           %        15
2  NC(=O)COc1cccc(C(=O)N2CCCC(n3cccn3)C2)c1 (configuration not stated)           %      28.1
3              COc1cc2cc(C(=O)O)n(C)c2cc1OC           %         0

Quick check: Percent Effect of CCCNC(=O)C(C)n1cc(Br)cn1 (configuration not stated) ?
18.5

Quick check: Percent Effect of O=C(CSc1ccc2c(c1)OCCO2)NS(=O)(=O)C1CCCCC1 ?
-5.13

Quick check: Percent Effect of O=C(NC1(c2cccc(F)c2)CCOCC1)c1ccoc1 ?
8.64

Quick check: Percent Effect of CS(=O)(=O)Cc1ccc(CNC(=O)c2cccnc2O)cc1 ?
7.59

Quick check: Percent Effect of Cc1cc(F)ccc1OC1(C(=O)O)CCN(Cc2cccnc2N)CC1 ?
11.1

Quick check: Percent Effect of CCOc1ccccc1OC1CCN(C(=O)c2ccc(=O)[nH]n2)CC1 ?
19.5

Quick check: Percent Effect of Cc1cccc(CNC2CCCc3c2cnn3C)c1 (configuration not stated) ?
6.17

Quick check: Percent Effect of O=C(NCCc1ccncc1)C1CCN(Cc2ccco2)CC1 ?
1.24
